- test_summary: In vivo plasma pharmacokinetics in mice
- setup_conditions: male, mouse, iv, I.V. 1 mg/kg
- Protocol: After dosage, blood samples were collected into heparinized tubes at 2, 5, 15, 30, 60, 120, 240, 360, 540, and 720 min for the i.v. group, and at 5, 15, 30, 60, 90, 120, 240, 360, 540, 720 and 1440 min for the i.g. group. Plasma (100 μL) was isolated from the blood sample by centrifuging at 4 °C and 6000 rpm for 3 min and then stored at − 80 °C until analysis. An aliquot of 100 μL of each plasma sample was mixed with 20 μL of internal standard working solution (200 ng/mL of caffeine). […]
endpoint_name: Cmax (ng/mL)
The answer is to be given in ng/mL; state only the numeric part.

Lookup: Param item = CC[C@H]1CN2CCc3cc(OC)c(OC)cc3[C@@H]2C[C@@H]1C[C@H]1NCCc2cc(OC)c(OC)cc21 [Emetine] ; retrieve measured Cmax.
Found: 111

* * *

- test_summary: In vivo plasma pharmacokinetics in mice
- setup_conditions: male, mouse, iv, I.V. 1 mg/kg
endpoint_name: AUC(0-t) (ng·h/mL)
Your answer should be a plain number; it is taken to be in ng·h/mL.

Lookup: Entry CC[C@H]1CN2CCc3cc(OC)c(OC)cc3[C@@H]2C[C@@H]1C[C@H]1NCCc2cc(OC)c(OC)cc21 : reported AUC(0-t) = ?
Found: 120

* * *

- test_summary: In vivo plasma pharmacokinetics in beagle dogs
- setup_conditions: beagle, iv, Dog, I.V. 1 mg/kg
endpoint_name: Cmax (ng/mL)
Dear colleague, please return just the value in ng/mL, with no unit written.

Lookup: Recorded Cmax of CC[C@H]1CN2CCc3cc(OC)c(OC)cc3[C@@H]2C[C@@H]1C[C@H]1NCCc2cc(OC)c(OC)cc21 , please.
Found: 260
